ΔTm at 10 µM overview
Target: AURKA (Homo sapiens, UniProt O14965)
Construct: purchased in-house thermal shift (DSF) kinase panel (SGC Frankfurt); Promega NanoBRET for AURKA/B/C
Assay: Thermal shift assay
Format: binding
Details: compound 10 µM; n = 3; read-out: ΔTm AURKA
Sequence (O14965 122-403): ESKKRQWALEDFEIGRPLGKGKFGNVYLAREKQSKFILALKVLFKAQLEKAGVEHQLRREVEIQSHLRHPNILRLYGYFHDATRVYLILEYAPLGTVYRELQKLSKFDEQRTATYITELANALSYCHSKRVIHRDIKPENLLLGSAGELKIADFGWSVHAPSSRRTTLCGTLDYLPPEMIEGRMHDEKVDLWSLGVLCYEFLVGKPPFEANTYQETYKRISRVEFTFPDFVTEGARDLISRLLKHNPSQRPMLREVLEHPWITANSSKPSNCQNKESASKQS
Form entry: value (°C) — number only.

Solved entries:
INSERT INTO results (compound, readout_number) VALUES
  ('CCN1CCN(C(=O)Cc2ccc(Nc3ncc(F)c(Nc4ccc(C(=O)O)cc4)n3)cc2)CC1 [ERJ2-12]', 9.5),
  ('NC(=O)Cc1ccc(Nc2ncc(F)c(Nc3ccc(C(=O)Nc4ccccc4Cl)cc3)n2)cc1 [ERJ2-06]', 15.5),
  ('CCN1CCN(C(=O)Cc2ccc(Nc3ncc(F)c(Nc4ccc(C(=O)Nc5ccccc5)cc4)n3)cc2)CC1 [ERJ2-11]', 13.8);

Query :: What ΔTm at 10 µM appears in the records for this compound with AURKA (Homo sapiens, UniProt O14965)? O=C(Cc1ccc(Nc2ncc(F)c(Nc3ccc(C(=O)Nc4ccccc4Cl)cc3)n2)cc1)NCCN1CCOCC1 [ERJ2-04]
Result :: 13

###

ΔTm at 10 µM overview
Biological target: MAPK1 (Homo sapiens, UniProt P28482)
Construct: purchased in-house thermal shift (DSF) kinase panel (SGC Frankfurt); Promega NanoBRET for AURKA/B/C
Sequence (P28482 whole entry): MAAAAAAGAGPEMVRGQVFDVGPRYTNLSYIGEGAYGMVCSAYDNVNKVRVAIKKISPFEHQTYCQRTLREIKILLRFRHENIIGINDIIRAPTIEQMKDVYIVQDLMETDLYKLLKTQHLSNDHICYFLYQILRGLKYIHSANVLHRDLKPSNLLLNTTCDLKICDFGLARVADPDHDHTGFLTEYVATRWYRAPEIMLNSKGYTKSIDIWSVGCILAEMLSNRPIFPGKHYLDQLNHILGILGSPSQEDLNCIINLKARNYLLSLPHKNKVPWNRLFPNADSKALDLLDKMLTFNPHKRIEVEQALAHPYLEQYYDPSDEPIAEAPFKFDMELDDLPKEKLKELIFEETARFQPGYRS
Assay: Thermal shift assay
Format: binding
Settings: compound 10 µM; n = 3

INSERT INTO results (compound, result) VALUES
  ('NC(=O)Cc1ccc(Nc2ncc(F)c(Nc3ccc(C(=O)Nc4ccccc4Cl)cc3)n2)cc1', '0.1 °C'),
  ('CCN1CCN(C(=O)Cc2ccc(Nc3ncc(F)c(Nc4ccc(C(=O)Nc5ccccc5Cl)cc4)n3)cc2)CC1 [Aurora-A inhibitor I, reference compound]', '0.4 °C'),
  ('O=C(Cc1ccc(Nc2ncc(F)c(Nc3ccc(C(=O)Nc4ccccc4Cl)cc3)n2)cc1)NCCN1CCOCC1', '0.3 °C'),
  ('CCN1CCN(C(=O)Cc2ccc(Nc3ncc(F)c(Nc4ccc(C(=O)Nc5ccccc5)cc4)n3)cc2)CC1', '-0.1 °C');

Query :: Fill in the blank: the reported ΔTm at 10 µM of CCN1CCN(C(=O)Cc2ccc(Nc3ncc(F)c(Nc4ccc(C(=O)O)cc4)n3)cc2)CC1 is ____.
Result :: -0.1 °C

###

Target: AAK1 (Homo sapiens)
Construct: purchased in-house thermal shift (DSF) kinase panel (SGC Frankfurt); Promega NanoBRET for AURKA/B/C
Sequence (Q2M2I8 27-365): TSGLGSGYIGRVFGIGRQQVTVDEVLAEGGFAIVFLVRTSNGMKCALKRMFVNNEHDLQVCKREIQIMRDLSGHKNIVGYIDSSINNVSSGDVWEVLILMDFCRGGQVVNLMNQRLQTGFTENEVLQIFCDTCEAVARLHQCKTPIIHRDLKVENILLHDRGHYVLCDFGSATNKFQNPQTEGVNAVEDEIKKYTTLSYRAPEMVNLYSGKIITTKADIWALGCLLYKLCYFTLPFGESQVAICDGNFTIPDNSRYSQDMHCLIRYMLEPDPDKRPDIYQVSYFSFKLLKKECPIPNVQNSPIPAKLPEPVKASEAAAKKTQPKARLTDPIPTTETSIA
Assay: Thermal shift assay
Assay type: binding
Conditions: compound 10 µM; n = 3; read-out: ΔTm AAK1
ΔTm at 10 µM overview
Form entry: value (°C) — number only.

Solved entries:
INSERT INTO results (structure_as_smiles, unit_text, readout_number) VALUES
  ('CCN1CCN(C(=O)Cc2ccc(Nc3ncc(F)c(Nc4ccc(C(=O)Nc5ccccc5)cc4)n3)cc2)CC1', '°C', 7.3),
  ('CCN1CCN(C(=O)Cc2ccc(Nc3ncc(F)c(Nc4ccc(C(=O)O)cc4)n3)cc2)CC1', '°C', 3.8);

Query :: Fill in the blank: the reported ΔTm at 10 µM of O=C(Cc1ccc(Nc2ncc(F)c(Nc3ccc(C(=O)Nc4ccccc4Cl)cc3)n2)cc1)NCCN1CCOCC1 is ____.
Result :: 4.4

Query :: Fill in the blank: the reported ΔTm at 10 µM of NC(=O)Cc1ccc(Nc2ncc(F)c(Nc3ccc(C(=O)Nc4ccccc4Cl)cc3)n2)cc1 is ____.
Result :: 6.8

###

ΔTm at 10 µM overview
Target: BMX (Homo sapiens)
Construct: purchased in-house thermal shift (DSF) kinase panel (SGC Frankfurt); Promega NanoBRET for AURKA/B/C
Sequence (P51813 411-675): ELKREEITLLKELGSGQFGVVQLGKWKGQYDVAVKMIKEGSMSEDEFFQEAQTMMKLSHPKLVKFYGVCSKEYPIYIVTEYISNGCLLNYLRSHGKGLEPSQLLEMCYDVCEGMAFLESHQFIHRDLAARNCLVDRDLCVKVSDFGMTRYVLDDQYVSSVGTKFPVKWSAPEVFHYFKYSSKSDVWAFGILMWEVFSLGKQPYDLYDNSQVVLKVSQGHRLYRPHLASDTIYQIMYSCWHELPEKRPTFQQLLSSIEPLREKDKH
Assay: Thermal shift assay
Assay type: binding
Settings: compound 10 µM; n = 3; read-out: ΔTm BMX
Respond with a number, then the unit of measure.

INSERT INTO assay_data (molecule, result) VALUES
  ('O=C(Cc1ccc(Nc2ncc(F)c(Nc3ccc(C(=O)Nc4ccccc4Cl)cc3)n2)cc1)NCCN1CCOCC1 [ERJ2-04]', '1.5 °C');

Query :: Fill in the blank: the reported ΔTm at 10 µM of CCN1CCN(C(=O)Cc2ccc(Nc3ncc(F)c(Nc4ccc(C(=O)O)cc4)n3)cc2)CC1 [ERJ2-12] is ____.
Result :: 0.9 °C

Query :: Fill in the blank: the reported ΔTm at 10 µM of NC(=O)Cc1ccc(Nc2ncc(F)c(Nc3ccc(C(=O)Nc4ccccc4Cl)cc3)n2)cc1 [ERJ2-06] is ____.
Result :: 2.1 °C

Query :: Fill in the blank: the reported ΔTm at 10 µM of CCN1CCN(C(=O)Cc2ccc(Nc3ncc(F)c(Nc4ccc(C(=O)Nc5ccccc5)cc4)n3)cc2)CC1 [ERJ2-11] is ____.
Result :: 2.7 °C

###

Biological target: AURKA (Homo sapiens, UniProt O14965)
Construct: full-length wild-type AURKA, AURKB, and AURKC were obtained as plasmids cloned in frame with a C-terminal NanoLuc-fusion; host or cells: HEK293T
Experiment: NanoBRET assay in HEK293T cells
Format: cell-based
Sequence (O14965 whole entry, the tested form may be a part): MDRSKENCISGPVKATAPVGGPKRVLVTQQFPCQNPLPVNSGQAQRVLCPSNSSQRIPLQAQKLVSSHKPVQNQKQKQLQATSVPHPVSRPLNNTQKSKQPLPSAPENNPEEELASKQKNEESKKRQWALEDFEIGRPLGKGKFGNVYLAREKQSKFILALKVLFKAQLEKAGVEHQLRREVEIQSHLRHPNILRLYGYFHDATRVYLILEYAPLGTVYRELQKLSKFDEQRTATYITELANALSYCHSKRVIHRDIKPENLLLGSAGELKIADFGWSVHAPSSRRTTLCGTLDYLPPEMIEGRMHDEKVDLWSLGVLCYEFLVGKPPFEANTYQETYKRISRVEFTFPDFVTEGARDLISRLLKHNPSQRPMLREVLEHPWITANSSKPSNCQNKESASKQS
attribute.measured: pIC50
Please note pIC50 is a logarithmic value: minus log10 of concentration in mol/L. Answer with that number alone.

Query :: Fill in the blank: the reported pIC50 of CCN1CCN(C(=O)Cc2ccc(Nc3ncc(F)c(Nc4ccc(C(=O)Nc5ccccc5Cl)cc4)n3)cc2)CC1 [Aurora-A inhibitor I, reference compound] is ____.
Result :: 6.74

###

pIC50 overview
Target: AURKA (Homo sapiens)
Construct: full-length wild-type AURKA, AURKB, and AURKC were obtained as plasmids cloned in frame with a C-terminal NanoLuc-fusion; host or cells: HEK293T
Test: NanoBRET assay in HEK293T cells
Assay type: cell-based
Details: NanoBRET; n = 2, mean; Figure 6B; read-out: affinity to intracellular AURKA
Please note pIC50 is a logarithmic value: minus log10 of concentration in mol/L. Answer with that number alone.

Query :: What pIC50 appears in the records for this compound with AURKA (Homo sapiens)? COCCNC(=O)Cc1ccc(Nc2ncc(F)c(Nc3ccc(C(=O)Nc4ccccc4Cl)cc3)n2)cc1
Result :: 6.62

Query :: What pIC50 appears in the records for this compound with AURKA (Homo sapiens)? O=C(O)Cc1ccc(Nc2ncc(F)c(Nc3ccc(C(=O)Nc4ccccc4Cl)cc3)n2)cc1
Result :: 5.88

Query :: What pIC50 appears in the records for this compound with AURKA (Homo sapiens)? O=C(Cc1ccc(Nc2ncc(F)c(Nc3ccc(C(=O)Nc4ccccc4Cl)cc3)n2)cc1)NCCN1CCOCC1
Result :: 6.25

###

Biological target: TTK (Homo sapiens, UniProt P33981)
Construct: purchased in-house thermal shift (DSF) kinase panel (SGC Frankfurt); Promega NanoBRET for AURKA/B/C
Sequence (P33981 519-808): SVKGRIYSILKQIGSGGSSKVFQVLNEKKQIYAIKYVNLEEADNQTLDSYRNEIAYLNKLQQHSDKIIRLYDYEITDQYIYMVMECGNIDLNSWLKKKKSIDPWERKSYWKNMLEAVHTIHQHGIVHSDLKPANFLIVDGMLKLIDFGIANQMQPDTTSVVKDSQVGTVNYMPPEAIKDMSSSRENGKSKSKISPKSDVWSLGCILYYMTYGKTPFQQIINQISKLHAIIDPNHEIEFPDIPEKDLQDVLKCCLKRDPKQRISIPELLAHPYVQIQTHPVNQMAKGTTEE
Test: Thermal shift assay
Assay type: binding
Conditions: compound 10 µM; n = 3; read-out: ΔTm TTK
attribute.measured: ΔTm at 10 µM (°C)
Form entry: value (°C) — number only.

Solved entries:
INSERT INTO measurements (molecule, readout_number) VALUES
  ('NC(=O)Cc1ccc(Nc2ncc(F)c(Nc3ccc(C(=O)Nc4ccccc4Cl)cc3)n2)cc1 [ERJ2-06]', 2.4),
  ('CCN1CCN(C(=O)Cc2ccc(Nc3ncc(F)c(Nc4ccc(C(=O)Nc5ccccc5)cc4)n3)cc2)CC1 [ERJ2-11]', 2.2),
  ('CCN1CCN(C(=O)Cc2ccc(Nc3ncc(F)c(Nc4ccc(C(=O)O)cc4)n3)cc2)CC1 [ERJ2-12]', 0.6);

# ---- query molecule ----
Query :: Fill in the blank: the reported ΔTm at 10 µM of O=C(Cc1ccc(Nc2ncc(F)c(Nc3ccc(C(=O)Nc4ccccc4Cl)cc3)n2)cc1)NCCN1CCOCC1 [ERJ2-04] is ____.
Result :: 1.8

###

Biological target: AURKC (Homo sapiens)
Construct: full-length wild-type AURKA, AURKB, and AURKC were obtained as plasmids cloned in frame with a C-terminal NanoLuc-fusion; host or cells: HEK293T
Sequence (Q9UQB9 1-309): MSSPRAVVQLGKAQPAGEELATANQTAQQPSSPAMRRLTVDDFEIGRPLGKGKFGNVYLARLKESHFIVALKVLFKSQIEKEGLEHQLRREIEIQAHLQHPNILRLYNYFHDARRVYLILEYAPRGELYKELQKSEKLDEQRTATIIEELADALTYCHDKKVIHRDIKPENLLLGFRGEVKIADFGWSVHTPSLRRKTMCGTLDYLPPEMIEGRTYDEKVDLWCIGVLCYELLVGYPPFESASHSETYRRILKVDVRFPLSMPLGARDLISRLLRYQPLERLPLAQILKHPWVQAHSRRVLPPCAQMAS
Assay: NanoBRET assay in HEK293T cells
Assay type: cell-based
Settings: NanoBRET; n = 2, mean; Figure 6B; read-out: affinity to intracellular AURKC
One threshold, 40 µM, splits the recorded IC50 values: lower ones are condition met, equal or higher ones are condition not met.

Answered cases to consult:
INSERT INTO measurements (structure_as_smiles, experimental_system, label) VALUES
  ('O=C(Cc1ccc(Nc2ncc(F)c(Nc3ccc(C(=O)Nc4ccccc4Cl)cc3)n2)cc1)NCCO', 'AURKC (Homo sapiens)', 'condition met'),
  ('O=C(Cc1ccc(Nc2ncc(F)c(Nc3ccc(C(=O)Nc4ccccc4Cl)cc3)n2)cc1)NCCN1CCOCC1', 'AURKC (Homo sapiens)', 'condition not met'),
  ('CCN1CCN(C(=O)Cc2ccc(Nc3ncc(F)c(Nc4ccc(C(=O)Nc5ccccc5)cc4)n3)cc2)CC1', 'AURKC (Homo sapiens)', 'condition not met'),
  ('COCCNC(=O)Cc1ccc(Nc2ncc(F)c(Nc3ccc(C(=O)Nc4ccccc4Cl)cc3)n2)cc1', 'AURKC (Homo sapiens)', 'condition met');

Please find the next compound below.
Query :: Would you kindly verify if IC50 of NC(=O)Cc1ccc(Nc2ncc(F)c(Nc3ccc(C(=O)Nc4ccccc4Cl)cc3)n2)cc1 is strictly less than 40 µM?
Result :: condition met

The measurements presented in this section are drawn from paper PMC8776063.
